test system: SNB-78; assay: NCI tumour cell line growth inhibition, 48 h
The source made the active and inactive calls. No stated cut-off is given here; in the data, active = GI50 up to about 1.1 µM and inactive = higher.
Please provide measured GI50 for the entries that follow.

Give the measured GI50 for CC(=O)/C(=C\C1=CCCO1)C(=O)Nc1ccccc1C > 100 µM (inactive)

Give the measured GI50 for Cc1[nH]c2ccccc2c1C1=NO/C(=N\O)C(c2c(C)[nH]c3ccccc23)C1 (stereo unspecified) 35.4 µM (inactive)

Give the measured GI50 for COC(=O)/C=C(C)/C=C/c1cc(C(C)=O)c(C)o1 > 100 µM (inactive)

Give the measured GI50 for COC(=O)[C@H]1C2CC[C@@H]3C45C[C@@H](c6ccoc6)O[C@@H]4O[C@@H](O2)C31CCC5C (stereo partly specified) 25.7 µM (inactive)

Give the measured GI50 for COc1cc(N)c2[nH]c3c(C)ccc(C)c3c2c1 > 100 µM (inactive)

Give the measured GI50 for CN(/N=C/c1ccnc2ccccc12)c1c([N+](=O)[O-])cc([N+](=O)[O-])cc1[N+](=O)[O-] 67.3 µM (inactive)

Give the measured GI50 for FC(F)(F)c1nc(Br)[nH]c1C(F)(F)F > 100 µM (inactive)

Give the measured GI50 for COc1ccc(Nc2nnc(-c3nsc4ccccc34)s2)cc1 > 100 µM (inactive)

Answer for every listed entry: what is its GI50? The entries follow.
1. O=[N+]([O-])c1ccc(-c2csc(=[N+]3CCCCC3)s2)cc1
2. CCOC(=O)C(=O)Nc1c(C(C)C)cccc1C(C)C
3. Cc1nc2c(nc1Cl)nc(Oc1ccc(Cl)cc1)c1ccccc12

["44.1 µM (inactive)", "> 100 µM (inactive)", "59.4 µM (inactive)"]

* * *

test system: T47D; experiment: NCI tumour cell line growth inhibition, 48 h
The source made the active and inactive calls. Cut-off read from the data, not from the text of the source: active = GI50 up to about 1.1 µM and inactive = higher.
Your response should consist of one outcome taken from 1 (active), 0 (inactive)

Kindly provide the recorded test outcome for the following molecule: COc1c(Cl)cc(NC(=S)C#N)cc1Cl 0

Kindly provide the recorded test outcome for the following molecule: C[C@@H]1C(=O)O[C@H]1[C@H](O)CO 0

Kindly provide the recorded test outcome for the following molecule: O=C(Nc1ccccc1Cl)c1cc(S(=O)(=O)Nc2n[nH]c(=O)n2-c2ccccc2)c(S)cc1Cl 0

Kindly provide the recorded test outcome for the following molecule: CC1(C)CNC(=O)C2(CCCO2)CNC(C)(C)CNC(=O)C2(CCCO2)CN1 (stereo not given) 0

From here, focus on the item given below.
Kindly provide the recorded test outcome for the following molecule: CCCC(=O)Nc1cc(/C=C/C(=O)N2C[C@H]3C[C@@]34C2=CC(=O)c2[nH]cc(C)c24)n(C)c1 1

* * *

system: SN12C; experiment: NCI tumour cell line growth inhibition, 48 h
Active and inactive are the calls of the source. Rule as the data show it: active = GI50 up to about 1.1 µM and inactive = higher.
measured quantity: GI50

Example results:
Give the measured GI50 for CCCc1c(O)nc2ccccc2c1O > 100 µM (inactive)

Give the measured GI50 for c1ccc(COC[C@H]2C3OCC([C@H](OCc4ccccc4)[C@H]3OCc3ccccc3)N2Cc2ccccc2)cc1 (stereo partly specified) > 49 µM (inactive)

Give the measured GI50 for Cc1n[nH]c(=O)n1-n1cccc1 > 100 µM (inactive)

Give the measured GI50 for CN(C)CCCn1c(-c2ccc(Br)cc2)cs/c1=N\c1ccccc1 18.5 µM (inactive)

Answer for every listed entry: what is its GI50? The entries follow.
1. C/C(COc1ccccc1)=N\NC(N)=S
2. Oc1ccc(-c2nc(-c3cccnc3)c(-c3ccc(F)cc3)[nH]2)cc1

["> 100 µM (inactive)", "23.9 µM (inactive)"]

* * *

system: HT-29; experiment: NCI tumour cell line growth inhibition, 48 h
The source made the active and inactive calls. Rule as the data show it: active = GI50 up to about 1.1 µM and inactive = higher.
Your response should consist of one outcome taken from active, inactive

Kindly provide the recorded test outcome for the following molecule: CCOC(=O)C1(c2ccccc2)CCCNCC1 (stereo not drawn) inactive

Kindly provide the recorded test outcome for the following molecule: O=C1CCCC2=C1CC1=C(CCCC1=O)N2c1cccc([N+](=O)[O-])c1 inactive

Kindly provide the recorded test outcome for the following molecule: CCn1c(CCCc2nc3c(=O)n(C)c(=O)n(C)c3[nH]2)nc2c1c(=O)n(C)c(=O)n2C inactive

* * *

system: HT-29; assay: NCI tumour cell line growth inhibition, 48 h
Active and inactive are the calls of the source. Rule as the data show it: active = GI50 up to about 1.1 µM and inactive = higher.
Your response should consist of one outcome taken from y for active, n for inactive

Example entries begin here.
Kindly provide the recorded test outcome for the following molecule: CSc1ccc(/C=C2\N=C(c3ccccc3)N(c3nc4c(Cl)cc(Cl)cc4s3)C2=O)cc1 n

Kindly provide the recorded test outcome for the following molecule: COc1cc2c(cc1C)NC(=O)/C2=C\c1ccncc1 n

Kindly provide the recorded test outcome for the following molecule: COc1cc2c(cc1C)NC(=O)/C2=C/c1c(Cl)n(-c2ccccc2)c2ccccc12 n

Kindly provide the recorded test outcome for the following molecule: CC(C)(C)OC(=O)NCCNCCNc1ccccc1 n

Kindly provide the recorded test outcome for the following molecule: O=c1c(C(c2ccc(/C=C/c3ccccc3)cc2)c2c(O)oc3ccccc3c2=O)c(O)oc2ccccc12 n

More entries:
Kindly provide the recorded test outcome for the following molecule: CC1(C)OC2[C@@H](CO[C@@]3([C@@H](O)CCO)OC(C)(C)O[C@@H]23)O1 (some centres undefined) n

Kindly provide the recorded test outcome for the following molecule: CC(=O)OC1CC2C(C)(C)C(=O)C=C[C@]2(C)C2CCC3(C)C(c4ccoc4)C(=O)C4OC43[C@]12C (some centres undefined) n

Kindly provide the recorded test outcome for the following molecule: COc1cc2c(cc1OC)C(=O)C1(C2)[C@H](c2ccccc2)C2C(=O)c3cc(OC)c(OC)cc3C2[C@H]1c1ccccc1 (some centres undefined) n

Kindly provide the recorded test outcome for the following molecule: CC[C@@]1(O)C(=O)OCc2c1cc1n(c2=O)Cc2c-1nc1ccc(O)cc1c2CC[Si](C)(C)C y

* * *

system: ACHN; test: NCI tumour cell line growth inhibition, 48 h
Activity calls are given as the source filed them. Rule as the data show it: active = GI50 up to about 1.1 µM and inactive = higher.
measured quantity: GI50

Answer for every listed entry: what is its GI50? The entries follow.
1. COc1cccc(-c2cc(O)c3ccccc3n2)c1
2. COC(=O)C1(Cc2ccccc2)Cc2ccccc2C1O (stereo unspecified)
3. Cc1ccc(S(=O)(=O)CN2C(=O)C(c3ccccc3)(c3ccccc3)C23OC(c2ccc(Cl)cc2)=CC3=O)cc1 (stereo unspecified)

1. 6.92 µM (inactive)
2. > 100 µM (inactive)
3. > 10 µM (inactive)

* * *

system: CCRF-CEM; experiment: NCI tumour cell line growth inhibition, 48 h
Active and inactive are the calls of the source. Rule as the data show it: active = GI50 up to about 1.1 µM and inactive = higher.
measured quantity: GI50

Example results:
Give the measured GI50 for O=CC1OC(=O)c2cc(O)c(O)c(O)c2-c2c(cc(O)c(O)c2O)C(=O)OC1C1OC(=O)c2cc(O)c(O)c(O)c2-c2c(O)c(O)c3oc(=O)c4c(c(O)c(O)c5oc(=O)c2c3c54)-c2c(cc(O)c(O)c2O)C(=O)OCC1O (centres undefined) 24.3 µM (inactive)

Give the measured GI50 for C[C@]12CCc3nonc3C1CC[C@@H]1C2CC[C@@]2(C)C1CC[C@@H]2O (some centres undefined) > 100 µM (inactive)

Answer for every listed entry: what is its GI50? The entries follow.
1. NC(=S)NNC(=S)NC(=O)c1ccco1
2. COc1cccc2c1OC1c3ccccc3OCC1C2 (centres undefined)

1. > 10 µM (inactive)
2. 42.8 µM (inactive)

* * *

system: M14; assay: NCI tumour cell line growth inhibition, 48 h
Calls of active or inactive are those of the source. Cut-off read from the data, not from the text of the source: active = GI50 up to about 1.1 µM and inactive = higher.
Please provide measured GI50 for the entries that follow.

Give the measured GI50 for CC(C)c1cccc(C(C)C)c1NC1=CC(=O)C(=O)c2ccccc21 > 100 µM (inactive)

Give the measured GI50 for CCOC(=O)C(NO)C(Sc1ccccc1)c1ccc(OC)cc1 (stereo unspecified) > 100 µM (inactive)

Give the measured GI50 for Clc1cc(Cl)cc(/C=N/C23CC4CC(CC(C4)C2)C3)c1 > 10 µM (inactive)

Give the measured GI50 for O=[N+]([O-])c1ccc(-c2csc(=[N+]3CCCCC3)s2)cc1 36.1 µM (inactive)

Give the measured GI50 for CC(C)NC(=O)OCc1nnn2c1CCC2 > 100 µM (inactive)

Let's switch to this molecule now.
Give the measured GI50 for O=C(O)c1c[nH]c2c(ccc3ncccc32)c1=O > 100 µM (inactive)

* * *

Please provide measured GI50 for the entries that follow.
system: SF-539; assay: NCI tumour cell line growth inhibition, 48 h
Activity calls are given as the source filed them. Cut-off read from the data, not from the text of the source: active = GI50 up to about 1.1 µM and inactive = higher.

Give the measured GI50 for CC(C)(C)OC(=O)NNCC(O)COc1ccccc1 (stereo not given) > 100 µM (inactive)

Give the measured GI50 for C[N+]1(C)CN(c2ccccc2)C2(CCN(CCCC(=O)c3cccs3)CC2)C1=O > 100 µM (inactive)

Give the measured GI50 for CN(C)CCOC1(Cc2ccc(Cl)cc2Cl)CCC(C(C)(C)C)CC1 (stereo not given) 4.36 µM (inactive)

Give the measured GI50 for C=C1C(=O)[C@@]23CC[C@@H]4[C@@]5(C)CCC[C@@]4(OC5=O)[C@@]2(C)CC[C@@H]1C3 2.12 µM (inactive)

Give the measured GI50 for O=C(OCCN=c1c2ccccc2ccc2ccccc12)c1ccc([N+](=O)[O-])cc1 > 100 µM (inactive)

Answer for every listed entry: what is its GI50? The entries follow.
1. O=C(Nc1ccccc1Cl)c1cc(S(=O)(=O)Nc2n[nH]c(=O)n2-c2ccccc2)c(S)cc1Cl
2. CC(C)(C)OC(=O)n1c2ccccc2c2c(=O)nc(N3CCCCC3)sc21
3. CC1CCC2(CC1)N=C1CCC(C)CC1C1(CCC(C)CC1)N2 (stereo not given)

["> 100 µM (inactive)", "> 100 µM (inactive)", "> 100 µM (inactive)"]

Answer for every listed entry: what is its GI50? The entries follow.
1. COC(=O)C1=C(C(=O)OC)C2(C)OC1C(=O)C21CC1 (stereo not given)
2. NC(C(=O)OC(=O)c1ccccc1)C(=O)OC(=O)c1ccccc1

1: 20.7 µM (inactive); 2: > 100 µM (inactive)
